Provide the reported pIC50 of each item.
measurement_target: Sodium/potassium-transporting ATPase
assay_summary: Inhibition of myocardial Na+/K+ ATPase from canine cardiac sarcolemma
Numbers only, as −log10 of the molar value.

Would you please look over these solved cases?
{"columns": ["compound", "measurement_target", "parameter", "value_measured"],
 "data": [
  ["CC(Nc1ncc(-c2cc(C(F)(F)F)cc(C(F)(F)F)c2)n1C)c1ccccc1 (configuration not stated)", "Sodium/potassium-transporting ATPase", "pIC50", 4.06],
  ["CC(Nc1ncc(-c2cc(F)cc(F)c2)n1C)c1ccccc1 (configuration not stated)", "Sodium/potassium-transporting ATPase", "pIC50", 4.28],
  ["CC(Nc1ncc(-c2ccc3ccccc3c2)n1C)c1ccccc1 (configuration not stated)", "Sodium/potassium-transporting ATPase", "pIC50", 5.68]
]}

For every item below, please supply its pIC50.
1. CC(Nc1ncc(-c2ccc(OC(F)(F)F)cc2)n1C)c1ccccc1 (configuration not stated)
2. C[C@@H](Nc1ncc(-c2ccccc2)n1C)c1ccccc1
3. CCC(C)C(Nc1ncc(-c2ccccc2)n1C)c1ccccc1 (configuration not stated)
4. COc1ccc(-c2cnc(NC(C)c3ccccc3)n2C)cc1OC (configuration not stated)

[A]
[4.48, 5.00, 4.11, 4.00]

---

measurement_target: Sodium/potassium-transporting ATPase
assay_summary: Inhibition of myocardial Na+/K+ ATPase from canine cardiac sarcolemma
Format: protein-complex assay, Canis lupus familiaris
Provide the reported log10 IC50 of each item.
Please note: log10 values; quantity IC50; unit µM.

{"columns": ["compound", "measurement_target", "parameter", "value_measured"],
 "data": [
  ["CCC(Nc1ncc(-c2ccccc2)n1C)c1ccc(Cl)cc1 (stereo unspecified)", "Sodium/potassium-transporting ATPase", "log10 IC50", -0.10],
  ["C[C@H](Nc1ncc(-c2ccccc2)n1C)c1ccccc1", "Sodium/potassium-transporting ATPase", "log10 IC50", 1.79],
  ["CC(Nc1ncc(-c2ccccc2)n1C)c1ccc(F)cc1 (stereo unspecified)", "Sodium/potassium-transporting ATPase", "log10 IC50", 1.00],
  ["CC(Nc1ncc(-c2ccccc2)n1C)c1ccc(Cl)cc1 (stereo unspecified)", "Sodium/potassium-transporting ATPase", "log10 IC50", 0.11],
  ["CC(Nc1ncc(-c2cccc(-c3ccccc3)c2)n1C)c1ccccc1 (stereo unspecified)", "Sodium/potassium-transporting ATPase", "log10 IC50", 1.15]
]}

# next compound below
[Q] Give the measured log10 IC50 of CC(Nc1ncc(-c2ccccc2)n1C)c1ccccc1 (stereo unspecified) .
[A] 1.58
